SYSTEM: CCKB receptor (Cavia porcellus)
Sequence (H0VZC5 1-426): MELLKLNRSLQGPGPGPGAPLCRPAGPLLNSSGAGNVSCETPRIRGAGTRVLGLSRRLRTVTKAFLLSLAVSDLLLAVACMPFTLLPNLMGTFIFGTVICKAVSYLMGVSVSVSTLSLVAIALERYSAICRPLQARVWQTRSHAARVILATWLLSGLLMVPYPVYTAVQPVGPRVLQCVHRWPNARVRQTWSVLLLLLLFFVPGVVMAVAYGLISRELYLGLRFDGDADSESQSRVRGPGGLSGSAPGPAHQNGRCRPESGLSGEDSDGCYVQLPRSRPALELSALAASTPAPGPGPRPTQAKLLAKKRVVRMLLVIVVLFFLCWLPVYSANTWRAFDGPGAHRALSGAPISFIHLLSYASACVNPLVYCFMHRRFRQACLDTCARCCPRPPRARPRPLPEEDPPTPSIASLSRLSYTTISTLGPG
ASSAY_TEXT: 125I-CCK-8 receptor binding assay, CCKB (guinea pig cerebral cortex)
COND: IC50 CCKB
Procedure: CCKA and CCKB receptor binding assays were performed, by using guinea pig cerebral cortex (CCKB) or rat pancreas (CCKA). […]. J. Pharmacol., 269, 249-254]. Pancreatic membranes were prepared in a similar way but by Charpentier et al [(1988), Cyclic cholecystokinin analogues with high selectivity for central receptors., Proc Natl Acad Sci USA, 85, 1968-1972]. […]
pIC50: −log10 of the molar value.

| COMPOUND | pIC50 |
| --- | --- |
| CN(c1ccccc1)C1N=C(c2ccccc2)c2cc(Cl)ccc2NC1=O (stereo not shown) [Example 24] | 6.82 |
| CC(C)N(C1CCCCC1)C1N=C(c2ccccc2)c2cc(Cl)ccc2NC1=O (single isomer, unassigned) [Example 8] | 6.72 |
| Cc1cccc(N(C)C2N=C(c3ccccc3)c3cc(Cl)ccc3NC2=O)c1 (stereo not shown) [Example 55] | 7.15 |
| Cc1ccc(NC2N=C(c3ccccc3)c3cc(Cl)ccc3NC2=O)cc1C (stereo not shown) [Example 31] | 6.04 |

From: patent US20070185094A1
